# Test system: IGROV1 ovarian
# test_method_notes: NCI-60 one-dose screen, 48 h
# study_conditions: 10 µM unless noted
The panel holds about 83,000 compounds, 20% with a hit somewhere; the sample as a whole holds those more often. Activity calls are given as the source filed them. The calls were made as follows: active = growth percent below 10; inactive = the rest.
Classes used: active, inactive

# compound, test_target, assigned_category
records = [
    ("Cn1cc(-c2cnc3ccc(NC(=O)Nc4ccc(F)c(Br)c4)cc3n2)cn1", "IGROV1 ovarian", "inactive"),
    ("C=C1CC2(OC1=O)C(=O)N(CCCN1C(=O)C3(CC(=C)C(=O)O3)c3ccccc31)c1ccccc12 (stereo not given)", "IGROV1 ovarian", "inactive"),
    ("COc1c2occc2c(OC)c2c(=O)c(-c3cc(-c4ccc(F)cc4)c(C#N)c(N)n3)c(C)oc12", "IGROV1 ovarian", "inactive"),
    ("N[C@H]1CN(C(=O)c2cc3cc(Br)c(F)c(F)c3[nH]2)C[C@@H]1O", "IGROV1 ovarian", "inactive"),
    ("c1coc(CNc2ccnc(Nc3ccc(OCCN4CCCCC4)cc3)n2)c1", "IGROV1 ovarian", "inactive"),
    ("COc1ccc(C2C=C(c3ccc(OC)c(OC)c3)N=C3SC=C(C)N32)c(Br)c1 (stereo not given)", "IGROV1 ovarian", "inactive"),
    ("COc1ccc(-c2cc3c(OC)c(OC)c(OC)cc3oc2=O)cc1", "IGROV1 ovarian", "inactive"),
    ("COc1ccc(-c2nc(/C=N/Nc3cc(C)nc4ccc(Br)cc34)c(C)o2)cc1", "IGROV1 ovarian", "active"),
    ("C=C1CCC2C(C)(CO)C(O)CCC2(C)C1C/C=C1/C(=O)OCC1Oc1ccccc1C (stereo not given)", "IGROV1 ovarian", "inactive"),
    ("Clc1cc(Cl)cc(-c2ccc(-c3ccc(/C=N/NC4=NCCN4)cc3)s2)c1", "IGROV1 ovarian", "inactive"),
    ("S=c1[nH]nc(-c2cc3ccc2CCc2ccc(cc2)CC3)n1-c1ccccc1", "IGROV1 ovarian", "inactive"),
    ("O=C(Nc1ccncc1)C(=O)c1cn(S(=O)(=O)c2ccc(Oc3ccccc3)cc2)c2ccccc12", "IGROV1 ovarian", "inactive"),
    ("CC1(C)C(=O)/C(=C\\c2ccc(C(F)(F)F)cc2)C[C@]2(C)[C@H]3CC[C@@H]4[C@H]5[C@H](C(=O)/C=C/c6ccc(C(F)(F)F)cc6)CC[C@]5(CO)CC[C@@]4(C)[C@]3(C)CC[C@@H]12", "IGROV1 ovarian", "inactive"),
    ("O=C1c2ccccc2-c2ccccc2C1(Cl)Cl", "IGROV1 ovarian", "active"),
    ("Cc1ccc(-c2nc(C(Cl)Cl)n3nc(-c4ccccc4)cc3n2)cc1", "IGROV1 ovarian", "inactive"),
    ("O=S(=O)(c1ccc(OCCO)cc1)c1ccc(OCCO)cc1", "IGROV1 ovarian", "inactive"),
    ("COc1cc2c(c(OC)c1OC)-c1ccc(N)c(=O)cc1[C@@H](NC(C)=O)CC2", "IGROV1 ovarian", "active"),
    ("CC(C)NCCCNC1=C(Cl)C(=O)c2ccccc2C1=O", "IGROV1 ovarian", "active"),
    ("CC(C)(C)n1cc(-c2ccnc(NCCCNS(=O)(=O)c3ccc(Cl)cc3)c2)c(-c2cccc(O)c2)n1", "IGROV1 ovarian", "active"),
    ("O=C(CSc1nc2ccccc2[nH]1)c1ccc(N2CCOCC2)cc1", "IGROV1 ovarian", "inactive"),
]

====

# Test system: HS 578T breast
# test_method_notes: NCI-60 one-dose screen, 48 h (100 = growth as untreated, 0 = no growth, -100 = all killed)
# study_conditions: 10 µM unless noted
The panel holds about 83,000 compounds, 20% with a hit somewhere; the sample as a whole holds those more often.
readout: growth (%)

# smiles, test_target, reading
records = [
    ("COc1ccc(-c2cc(-c3ccccc3)nc(SCCCC(=O)NO)n2)cc1OC", "HS 578T breast", 18),
    ("O=c1cc(Cc2ccc([N+](=O)[O-])cc2)[nH]c(=O)[nH]1", "HS 578T breast", 100),
    ("CCOC(=O)c1cc(C(=O)c2cc(OC)c(OC)c(OC)c2)n2c1ccc1ccccc12", "HS 578T breast", 11.6),
    ("O=c1[nH]c(Nc2ccc(S(=O)(=O)O)cc2)nc2nc(Nc3ccc(NC(=S)Nc4ccccc4)cc3)nc(-c3ccc(O)cc3O)c12", "HS 578T breast", 102),
    ("O=C(/C=C/c1c[nH]c2ccccc12)c1ccc(O)c(CN2CCN(c3ccc(F)cc3)CC2)c1", "HS 578T breast", 108),
    ("O=C(Nc1cccc(-n2cc(-c3ccncc3)c(-c3ccc(Cl)c(O)c3)n2)c1)c1ccccc1", "HS 578T breast", 48.4),
    ("CCCCN(CCCC)C(=O)CC", "HS 578T breast", 149),
    ("COc1ccc(C(=O)n2nc(/C=C/c3ccc(O)c(OC)c3)cc2/C=C/c2ccc(O)c(OC)c2)cc1", "HS 578T breast", 0.538),
    ("O=C1/C(=C/c2ccc(Cl)cc2)CN(Cc2cn(CCNc3ccnc4cc(Cl)ccc34)nn2)C/C1=C\\c1ccc(Cl)cc1", "HS 578T breast", -19.8),
    ("Cc1ccc(CSC(=N)N)cc1C", "HS 578T breast", 103),
]

====

# Test system: RPMI-8226 leukemia
# test_method_notes: NCI-60 one-dose screen, 48 h (100 = growth as untreated, 0 = no growth, -100 = all killed)
# study_conditions: 10 µM unless noted
About 83,000 compounds went through this panel and 20% of them were active in at least one assay; those are over-represented in the sample as a whole.
Classes based on growth: bottom bin = under 20%, middle bin = from 20% up to 90%, top bin = 90% and over

# compound, assigned_category
measured = [
    ("CCN(CC)CCOc1ccc(Cl)c(C)c1", "top bin"),
    ("CCCCCCCCCCCCCCCCCCNC(=O)[C@H]1CSC(c2cccs2)N1 (stereo partly specified)", "bottom bin"),
    ("CCCCC(CC)OC(=O)C(Br)CC (stereo unspecified)", "top bin"),
    ("Cc1cc(N)n(S(=O)(=O)c2oc(-c3ccccc3)nc2C#N)n1", "middle bin"),
    ("COc1ccc(S(=O)(=O)NCCCNc2nccc(-c3c(-c4cccc([N+](=O)[O-])c4)nc4sccn34)n2)cc1", "bottom bin"),
    ("COc1cc(Cn2cc3c(c2)-c2oncc2CC3)cc(OC)c1OC", "middle bin"),
    ("CC1=C(C#N)C(=O)NC(C)C1 (stereo unspecified)", "top bin"),
    ("CC(C)(C)n1cc(-c2ccnc(NCCNS(=O)(=O)c3ccc(Cl)cc3)c2)c(-c2cccc(O)c2)n1", "middle bin"),
]

====

# System: ACHN renal
# test_method_notes: NCI-60 one-dose screen, 48 h (100 = growth as untreated, 0 = no growth, -100 = all killed)
# study_conditions: 10 µM unless noted
This is part of a sample that, as a whole, favours compounds with a hit. Of some 83,000 tested, about 20% had one in any assay.
readout: growth (%)

# compound, reading
rows = [
    ("C=C1C(=O)O[C@H]2[C@H]1CC/C(Cn1cc(CNC(=O)Cc3cn(C(=O)c4ccc(Cl)cc4)c4ccc(OC)cc34)nn1)=C\\CC[C@@]1(C)O[C@@H]21", 15),
    ("COc1cc(/C=C/C(=O)c2c(C)nc3ccccc3c2C)ccc1OCCCCOc1cc2c(cc1OC)C(=O)N1CCC[C@H]1C=N2", -80.7),
    ("NC(=S)N/N=C(/CCN1CCCC1)CC(C1=C(O)C2=CCCCC2OC1=O)c1ccccc1 (stereo not drawn)", 89.4),
    ("OC(c1cc2cc(Br)ccc2c2cc(Br)ccc12)C1CCCCN1 (stereo not drawn)", -73.4),
    ("N[C@H]1CN(C(=O)c2cc3cc(Br)c(F)c(F)c3[nH]2)C[C@@H]1O", 102),
    ("O=C1NN(C(=O)c2ccc(Cl)cc2)C(c2ccccc2)=N/C1=C\\c1cn(-c2ccccc2)nc1-c1ccccc1", 98.5),
    ("Cc1ccc(S(=O)(=O)NC(=O)n2cc(-c3ccncc3)c(-c3ccc(Cl)c(O)c3)n2)cc1", 94.5),
    ("CN(C)c1nc2c(N)ncnc2n1C1OC(CO)C(O)C1O (stereo not drawn)", 99.4),
]

====

# Test system: HCT-116 colon
# test_method_notes: NCI-60 one-dose screen, 48 h (100 = growth as untreated, 0 = no growth, -100 = all killed)
# study_conditions: 10 µM unless noted
This is part of a sample that, as a whole, favours compounds with a hit. Of some 83,000 tested, about 20% had one in any assay. Activity calls are given as the source filed them. Rule for the calls: active = growth percent below 10; inactive = the rest.

# molecule, growth
records = [
    ("C=C(C)[C@@H]1CC[C@]2(C(=O)O)CC[C@]3(C)[C@H](CC[C@@H]4[C@@]5(C)C[C@@H](CC#Cc6ccc(C(F)(F)F)cc6)[C@H](O)C(C)(C)[C@@H]5CC[C@]43C)[C@@H]12", "11.4% (inactive)"),
    ("Cc1ccc(-c2csc(NC(=O)CCCCl)n2)cc1", "98.6% (inactive)"),
    ("CN(C)CCCN(c1nc(C(Cl)(Cl)Cl)ns1)c1nc(C(Cl)(Cl)Cl)ns1", "21.2% (inactive)"),
    ("COc1ccc(C(=O)N2NC(=O)/C(=C/c3ccc(Br)cc3)N=C2c2ccccc2)cc1", "75.5% (inactive)"),
    ("CCC(=O)OC1=CN2C(=NC(c3ccc(N)cc3)=CC2c2cc(OC)c(OC)c(OC)c2)S1 (stereo not given)", "17.9% (inactive)"),
]
